tested-on: T1, human high affinity trimeric IL-2 receptor (CD25/CD122/CD132) (human, UniProt P01589 22-272; P14784 27-551; P31785 23-369)
T1 sequence 1: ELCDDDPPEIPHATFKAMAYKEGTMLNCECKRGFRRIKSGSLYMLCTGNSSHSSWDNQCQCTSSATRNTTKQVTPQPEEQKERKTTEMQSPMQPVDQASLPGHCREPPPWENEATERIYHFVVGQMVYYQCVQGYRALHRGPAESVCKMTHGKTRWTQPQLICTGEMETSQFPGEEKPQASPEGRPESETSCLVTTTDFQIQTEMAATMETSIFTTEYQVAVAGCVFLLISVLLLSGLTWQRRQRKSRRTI
T1 sequence 2: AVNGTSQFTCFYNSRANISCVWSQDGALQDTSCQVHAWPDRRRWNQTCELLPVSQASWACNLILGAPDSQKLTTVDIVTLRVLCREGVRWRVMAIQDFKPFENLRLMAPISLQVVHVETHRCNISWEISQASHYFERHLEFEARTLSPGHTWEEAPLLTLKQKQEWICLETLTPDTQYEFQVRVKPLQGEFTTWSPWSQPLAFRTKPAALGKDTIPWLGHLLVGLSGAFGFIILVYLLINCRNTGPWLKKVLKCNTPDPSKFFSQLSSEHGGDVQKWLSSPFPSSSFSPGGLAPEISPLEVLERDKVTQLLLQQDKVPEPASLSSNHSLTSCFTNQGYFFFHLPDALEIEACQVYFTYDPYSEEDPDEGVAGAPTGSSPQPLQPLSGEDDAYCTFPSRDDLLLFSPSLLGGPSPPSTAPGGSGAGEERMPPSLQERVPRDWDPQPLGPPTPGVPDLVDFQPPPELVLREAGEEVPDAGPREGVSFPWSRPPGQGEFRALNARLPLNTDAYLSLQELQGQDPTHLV
T1 sequence 3: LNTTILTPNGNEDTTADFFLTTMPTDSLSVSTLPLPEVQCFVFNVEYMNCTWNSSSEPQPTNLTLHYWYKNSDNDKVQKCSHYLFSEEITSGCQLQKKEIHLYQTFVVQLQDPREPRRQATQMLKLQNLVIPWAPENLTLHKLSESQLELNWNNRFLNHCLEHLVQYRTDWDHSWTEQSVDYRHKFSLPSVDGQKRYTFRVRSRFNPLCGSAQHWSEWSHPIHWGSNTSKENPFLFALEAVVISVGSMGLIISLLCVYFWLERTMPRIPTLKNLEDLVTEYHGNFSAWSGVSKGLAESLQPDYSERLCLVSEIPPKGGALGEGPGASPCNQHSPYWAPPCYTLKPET
assay-procedure: cell-based or functional assay
observed-property: pSTAT5 ratio YT CD25/YT, dilution factor 2, upper table

- binder: "WEH (ligand) cytokine: APTSSSTKKTQLQLEHLWLDLEMILNGINNYKNPKLTRMLTFKFYMPKKATELKHLQCLEEELKPLEEVLNLAQSKNFHLRPRDLISNINVIVLELKGSETTFMCEYADETATIVEFLNRWITFCHSIISTLT"
  reading: 1.1
- binder: "QEH (ligand) cytokine: APTSSSTKKTQLQLEHLQLDLEMILNGINNYKNPKLTRMLTFKFYMPKKATELKHLQCLEEELKPLEEVLNLAQSKNFHLRPRDLISNINVIVLELKGSETTFMCEYADETATIVEFLNRWITFCHSIISTLT"
  reading: 1.1
- binder: "IEH (ligand) cytokine: APTSSSTKKTQLQLEHLILDLEMILNGINNYKNPKLTRMLTFKFYMPKKATELKHLQCLEEELKPLEEVLNLAQSKNFHLRPRDLISNINVIVLELKGSETTFMCEYADETATIVEFLNRWITFCHSIISTLT"
  reading: 1.2
- binder: "VEH (ligand) cytokine: APTSSSTKKTQLQLEHLVLDLEMILNGINNYKNPKLTRMLTFKFYMPKKATELKHLQCLEEELKPLEEVLNLAQSKNFHLRPRDLISNINVIVLELKGSETTFMCEYADETATIVEFLNRWITFCHSIISTLT"
  reading: 1.2
- binder: "MEH (ligand) cytokine: APTSSSTKKTQLQLEHLMLDLEMILNGINNYKNPKLTRMLTFKFYMPKKATELKHLQCLEEELKPLEEVLNLAQSKNFHLRPRDLISNINVIVLELKGSETTFMCEYADETATIVEFLNRWITFCHSIISTLT"
  reading: 0.9
- binder: "hIL2 mutein REE (L18R, Q22E, Q126E) (ligand) APTSSSTKKTQLQLEHLRLDLEMILNGINNYKNPKLTRMLTFKFYMPKKATELKHLQCLEEELKPLEEVLNLAQSKNFHLRPRDLISNINVIVLELKGSETTFMCEYADETATIVEFLNRWITFCESIISTLT"
  reading: 1.4
- binder: "SEH (ligand) cytokine: APTSSSTKKTQLQLEHLSLDLEMILNGINNYKNPKLTRMLTFKFYMPKKATELKHLQCLEEELKPLEEVLNLAQSKNFHLRPRDLISNINVIVLELKGSETTFMCEYADETATIVEFLNRWITFCHSIISTLT"
  reading: 1.2
